Each record here notes measured melting point.
Details: a range is the spread between reports

# Smiles String, melting point
records = [
    ("Cc1cccc(C)n1", "-7 to -6 °C"),
    ("CCCCCCCCOC(=O)c1cc(O)c(O)c(O)c1", "99 to 102 °C"),
    ("O=C1CNC(=O)N1", "220 to 222 °C"),
    ("Brc1ccc(Oc2ccccc2)cc1", "18 to 18.7 °C"),
]

Attention now shifts to the item below.
Notebook: `CCc1ccc(C(=O)O)cc1` , melting point read as 112 to 113 °C

====

Settings: a range is the spread between reports
Listed below: melting point values for each entry.

# Smiles String, Experimental Endpoint, Value Reported
measured = [
    ("N#Cc1ccc2ccccc2c1", "melting point", "65 to 66 °C"),
    ("S=c1nc[nH]c2nc[nH]c12", "melting point", "313 to 314 °C"),
    ("C[Si]1(C)O[Si](C)(C)O[Si](C)(C)O[Si](C)(C)O1", "melting point", "17.5 to 18 °C"),
    ("c1ccc2cnncc2c1", "melting point", "90.5 to 91 °C"),
]

Memo: `CC(C)(C)c1cc(C(=O)O)cc(C(C)(C)C)c1O` , reported melting point: 208 °C

The compound listed as `Cc1ccc(N)cc1Cl` has a reported melting point of 23 to 26 °C

Input `O=[N+]([O-])c1ccc2c(c1)Cc1ccccc1-2` . Output melting point: 156 to 157 °C
